Form field: IC50 (one value per entry).
Biological target: PARP2 (Homo sapiens, UniProt Q9UGN5)
Construct: made in house
Sequence (Q9UGN5 whole entry): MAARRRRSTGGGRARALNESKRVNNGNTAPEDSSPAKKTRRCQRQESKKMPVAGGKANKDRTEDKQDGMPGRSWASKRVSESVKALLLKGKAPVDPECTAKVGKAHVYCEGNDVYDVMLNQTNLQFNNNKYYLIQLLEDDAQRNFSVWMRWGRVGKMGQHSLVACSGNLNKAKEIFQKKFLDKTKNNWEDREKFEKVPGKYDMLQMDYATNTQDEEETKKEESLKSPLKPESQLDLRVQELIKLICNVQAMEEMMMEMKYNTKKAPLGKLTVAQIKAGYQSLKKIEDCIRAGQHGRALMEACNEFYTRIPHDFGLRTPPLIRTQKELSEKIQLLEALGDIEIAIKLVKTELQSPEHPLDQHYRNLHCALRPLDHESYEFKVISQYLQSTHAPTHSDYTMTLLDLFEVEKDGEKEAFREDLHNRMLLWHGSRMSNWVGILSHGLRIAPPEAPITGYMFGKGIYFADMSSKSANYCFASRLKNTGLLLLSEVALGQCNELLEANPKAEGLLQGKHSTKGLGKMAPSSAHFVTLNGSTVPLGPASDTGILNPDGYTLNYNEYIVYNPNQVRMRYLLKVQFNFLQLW
Experiment: Biochemical fluorescent polarization (FP) assay, displacement of PARPi-FL, PARP2
Type: binding
Details: 20 nM protein, 3 nM PARPi-FL, 4 h at room temperature; read-out: FP PARP2 pIC50 (converted)
Just the number please, in µM, no unit attached.

Worked cases, IC50 given:
{"columns": ["MOLECULE", "TESTED ON", "IC50, µM"],
 "data": [
  ["N#Cc1ccc(N2CCN(Cc3cnc4cc(C5CC5)c(=O)[nH]c4c3)[C@H]3C[C@H]32)nc1 (single isomer, unassigned)", "PARP2 (Homo sapiens, UniProt Q9UGN5)", 2.51],
  ["CCc1cc2ncc(CN3CCN(c4ccc(C#N)cn4)CC3)cc2[nH]c1=O", "PARP2 (Homo sapiens, UniProt Q9UGN5)", 5.01],
  ["Cc1cc2ncc(CN3CCN(c4ccc(C#N)nc4)CC3)cc2[nH]c1=O", "PARP2 (Homo sapiens, UniProt Q9UGN5)", 79.4],
  ["CCc1cc2ncc(CN3CCN(c4ccc(C#N)cc4)CC3)cc2[nH]c1=O", "PARP2 (Homo sapiens, UniProt Q9UGN5)", 1.58],
  ["CCc1cc2ncc(CN3CCN(c4ccc(F)cc4C#N)CC3)cc2[nH]c1=O", "PARP2 (Homo sapiens, UniProt Q9UGN5)", 12.6],
  ["Cc1cc2ncc(CN3CCN(c4ccc(C#N)cn4)CC3)cc2[nH]c1=O", "PARP2 (Homo sapiens, UniProt Q9UGN5)", 5.01],
  ["N#Cc1ccc(N2CCN(Cc3cnc4cc(Cl)c(=O)[nH]c4c3)CC2)nc1", "PARP2 (Homo sapiens, UniProt Q9UGN5)", 50.1],
  ["N#Cc1ccc(N2CCN(Cc3cnc4cc(Br)c(=O)[nH]c4c3)CC2)nc1", "PARP2 (Homo sapiens, UniProt Q9UGN5)", 2],
  ["N#Cc1ccc(N2CCN(Cc3cnc4cc(C5CCCO5)c(=O)[nH]c4c3)CC2)nc1 (single isomer, unassigned) [Example 69]", "PARP2 (Homo sapiens, UniProt Q9UGN5)", 39.8],
  ["[2H]C([2H])(c1cnc2cc(C(F)F)c(=O)[nH]c2c1)N1CCN(c2ccc(C#N)cn2)CC1", "PARP2 (Homo sapiens, UniProt Q9UGN5)", 0.794]
]}

Give its IC50 value. Item: `Cc1c(Cl)c(=O)[nH]c2cc(CN3CCN(c4ccc(C#N)cn4)CC3)cnc12` 2

Give its IC50 value. Item: `CCc1cc2ncc(CN3CCN(c4ccc(C#N)cn4)[C@H](C)C3)cc2[nH]c1=O` 1.26

Give its IC50 value. Item: `Cc1c(Cl)c(=O)[nH]c2cc(CN3CCN(c4ccc(C#N)cc4)CC3)cnc12` 7.94

Give its IC50 value. Item: `Cc1cc2ncc(CN3CCN(c4ccc(C#N)cc4)CC3)cc2[nH]c1=O` 6.31

###

Tested on: DLD-1 BRCA2(−/−) cells
Experiment: Cell growth inhibition assay (CellTiter-Glo), DLD-1 BRCA2(−/−)
Assay type: cell-based
Conditions: Homo sapiens, DLD-1, 168 h; 200 cells/well, 7 days, CellTiter Glo 2.0; read-out: DLD-1 BRCA2(−/−) pEC50 (converted)
Description: Cell proliferation was measured through the cell viability assay using DLD-1 BRCA2(−/−) and parental isogenic pair and MDA-MB-436 (mutated BRCA1) cell lines. The CellTiter-Glo (CTG) based cell viability assay is designed to determine the number of viable cells in the culture because of compound effect, by quantifying ATP, which indicates the presence of metabolically active cells. […]
REPORTED METRIC: EC50

Worked cases, EC50 given:
{"columns": ["COMPOUND", "REPORTED METRIC", "MEASUREMENT"],
 "data": [
  ["CCc1cc2ncc(CN3CCN(c4ccc(C#N)nc4)CC3)cc2[nH]c1=O", "EC50", "3.16 nM"],
  ["[2H]C([2H])(c1cnc2cc(C)c(=O)[nH]c2c1)N1CCN(c2ccc(C#N)cn2)CC1", "EC50", "3.16 nM"],
  ["Cc1nc2ccc(CN3CCN(c4ccc(C#N)cn4)CC3)c(F)c2[nH]c1=O", "EC50", "25.1 nM"],
  ["Cc1cc2ncc(CN3CCN(c4ccc(C#N)nc4)CC3)cc2[nH]c1=O", "EC50", "20 nM"],
  ["N#Cc1ccc(N2CCN(Cc3cnc4cc(Cl)c(=O)[nH]c4c3)CC2)cc1", "EC50", "2 nM"]
]}

Give its EC50 value. Item: `Cc1cc2ncc(CN3CCN(c4ncc(F)cc4F)CC3)cc2[nH]c1=O` > 1000 nM

Entry source: patent US12384780B2
